B1: library; numbered along this chain (parent)
chain: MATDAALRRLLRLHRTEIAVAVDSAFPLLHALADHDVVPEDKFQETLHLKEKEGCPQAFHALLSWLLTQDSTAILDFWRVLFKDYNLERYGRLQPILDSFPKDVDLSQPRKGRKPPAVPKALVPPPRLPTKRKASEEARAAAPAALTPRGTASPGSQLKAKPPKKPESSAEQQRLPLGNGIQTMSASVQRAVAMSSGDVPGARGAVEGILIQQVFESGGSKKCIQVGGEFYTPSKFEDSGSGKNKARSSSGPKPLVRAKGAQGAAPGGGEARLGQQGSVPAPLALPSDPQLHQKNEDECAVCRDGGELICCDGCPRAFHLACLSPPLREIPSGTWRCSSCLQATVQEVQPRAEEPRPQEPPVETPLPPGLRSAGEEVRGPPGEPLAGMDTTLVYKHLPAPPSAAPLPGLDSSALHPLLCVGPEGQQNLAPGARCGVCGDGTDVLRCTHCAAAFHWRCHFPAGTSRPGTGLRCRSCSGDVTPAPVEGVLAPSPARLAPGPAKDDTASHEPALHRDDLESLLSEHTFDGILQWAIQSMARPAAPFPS

Variants of: B1
Test: AIRE transcriptional activation functional score (insulin promoter-GFP; nonsense median 0, synonymous median 1) (normalised score); higher = higher AIRE activity (more reporter activation)
Conditions: with insulin promoter-GFP reporter in HEK293
Readout name: AIRE transcriptional activation functional score

{"Variant descriptor": "S71N", "Value reported": 0.235}
{"Variant descriptor": "L177K", "Value reported": 1.09}
{"Variant descriptor": "H292D", "Value reported": 0.892}
{"Variant descriptor": "P490V", "Value reported": 0.606}
{"Variant descriptor": "D526I", "Value reported": 0.298}
{"Variant descriptor": "F318R", "Value reported": 1.47}
{"Variant descriptor": "P490H", "Value reported": 0.603}
{"Variant descriptor": "F59H", "Value reported": 0.308}
{"Variant descriptor": "A144M", "Value reported": 0.931}
{"Variant descriptor": "P499Y", "Value reported": 1.13}
{"Variant descriptor": "K245L", "Value reported": 0.453}
{"Variant descriptor": "G228Q", "Value reported": -1.12}
{"Variant descriptor": "S476D", "Value reported": 0.455}
{"Variant descriptor": "V206P", "Value reported": 0.762}
{"Variant descriptor": "E485C", "Value reported": 1.24}
{"Variant descriptor": "E167H", "Value reported": -0.185}
{"Variant descriptor": "R378I", "Value reported": 0.795}

Origin of the recorded values: the supplement of paper PMC12667976
